Consider the following compounds; for each one, report its OX2R agonist activity (3 μM, %).
target: human orexin type 2 receptor (Homo sapiens); construct: expressed in transfected cells; assay: Measurement of orexin type 2 receptor agonist activity (calcium fluorescence, Fluo-4 AM, FDSS); assay type: cell-based; settings: test compound 3 μM; CHO cells expressing human OX2 receptor; DMSO = 0%, orexin A (human) = 100%
Sequence (O43614 whole entry): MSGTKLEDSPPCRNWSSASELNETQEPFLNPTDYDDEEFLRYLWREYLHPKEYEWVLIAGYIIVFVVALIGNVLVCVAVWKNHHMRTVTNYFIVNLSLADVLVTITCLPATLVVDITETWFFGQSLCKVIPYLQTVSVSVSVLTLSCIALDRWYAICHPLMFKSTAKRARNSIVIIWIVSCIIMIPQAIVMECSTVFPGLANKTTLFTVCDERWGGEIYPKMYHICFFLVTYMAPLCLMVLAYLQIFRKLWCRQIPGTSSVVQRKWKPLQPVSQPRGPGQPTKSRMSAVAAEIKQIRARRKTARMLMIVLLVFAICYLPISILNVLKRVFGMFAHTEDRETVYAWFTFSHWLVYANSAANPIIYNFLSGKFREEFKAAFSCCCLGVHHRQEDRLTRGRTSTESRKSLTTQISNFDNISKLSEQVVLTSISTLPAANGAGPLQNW
Give bare numbers, in %.

compound	OX2R agonist activity (3 μM, %)
CC1(C)C(C(=O)N2CC[C@H](NS(C)(=O)=O)C2)C1c1ccccc1-c1c(F)cccc1F (mixture of isomers)	96
CS(=O)(=O)NC[C@@H]1CCN1C(=O)[C@@H]1C[C@H]1c1ccccc1-c1c(F)ccc(F)c1F	73
CO[C@@H]1CN(C(=O)[C@@H]2C[C@@]2(F)c2ccccc2-c2c(F)cccc2F)[C@@H]1CNS(C)(=O)=O	72
CS(=O)(=O)N[C@H]1CCN(C(=O)C2(C#N)CC2c2ccccc2-c2c(F)cccc2F)C1 (mixture of isomers)	88
CS(=O)(=O)NC1CCCN(C(=O)C2CC2c2ccccc2-c2ccc(F)cc2F)CC1 (racemic)	85
CS(=O)(=O)N[C@@H]1CN(C(=O)[C@@H]2C[C@H]2c2ccccc2-c2c(F)cccc2F)C[C@H]1F	87

Okay, here is my list. What is OX2R agonist activity (3 μM, %) for each of these?
1. CCS(=O)(=O)NC12CC1CN(C(=O)C1CC1c1ccccc1-c1c(F)cccc1F)C2 (racemic)
2. COC[C@@H]1CN(C(=O)[C@@H]2C[C@@]2(F)c2ccccc2-c2c(F)cccc2F)[C@@H]1CNS(C)(=O)=O
3. CS(=O)(=O)N[C@H]1CCN(C(=O)C2CC2c2ccc(F)cc2-c2c(F)cccc2F)C1 (single isomer, unassigned)
4. C[C@H](NS(=O)(=O)C1(C)CC1)[C@@H]1CCN1C(=O)[C@@H]1C[C@@]1(F)c1ccccc1-c1c(F)cccc1F
5. CN(C)S(=O)(=O)NC1CCCN(C(=O)C2CC2c2ccccc2-c2c(F)cccc2F)CC1 (racemic)
6. CS(=O)(=O)NC[C@H]1CN(C(=O)[C@@H]2C[C@H]2c2ccccc2-c2c(F)cccc2F)CCO1
7. CS(=O)(=O)NC1CCN(C(=O)C2CC2c2ccccc2-c2ccccc2Cl)C1 (racemic)

result:
1. 99
2. 84
3. 103
4. 98
5. 102
6. 87
7. 68

OX2R agonist activity (3 μM, %) reported for this compound Cc1ccc(C2(F)CC2C(=O)N2C[C@@H](C)[C@H]2CNS(C)(=O)=O)c(-c2c(F)cccc2F)c1 (some centres unmarked) : 104

Data provenance is patent US20250250230A1.
